B1: DLC1 (parent)
chain: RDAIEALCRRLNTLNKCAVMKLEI

- Variants of: B1
- PROTOCOL DETAILS: protein stability index of a GFP-peptide fusion (GPS, HEK-293T) (PSI 1-6); higher = more stable;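 also: lentivirally expressed fusions sorted by FACS into six bins by GFP to DsRed ratio, PSI derived from sequencing read proportions per bin multiplied by bin number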
- CONDITION PARAMETERS: c terminus: a fixed tail appended
Each entry gets N if its protein stability index stays under 2, and Y if its protein stability index is 2 or above.

### Prompt In plain terms: is recorded protein stability index at least 2 for N12V ?
### Response Y

### Prompt In plain terms: is recorded protein stability index at least 2 for L7S ?
### Response N

### Prompt In plain terms: is recorded protein stability index at least 2 for K16A ?
### Response Y
